Target: P2X7 receptor (Homo sapiens, UniProt Q99572)
Construct: 200 μl of a suspension of THP-1 cells; endogenous in cells; host or cells: THP-1 cells
Sequence (Q99572 whole entry): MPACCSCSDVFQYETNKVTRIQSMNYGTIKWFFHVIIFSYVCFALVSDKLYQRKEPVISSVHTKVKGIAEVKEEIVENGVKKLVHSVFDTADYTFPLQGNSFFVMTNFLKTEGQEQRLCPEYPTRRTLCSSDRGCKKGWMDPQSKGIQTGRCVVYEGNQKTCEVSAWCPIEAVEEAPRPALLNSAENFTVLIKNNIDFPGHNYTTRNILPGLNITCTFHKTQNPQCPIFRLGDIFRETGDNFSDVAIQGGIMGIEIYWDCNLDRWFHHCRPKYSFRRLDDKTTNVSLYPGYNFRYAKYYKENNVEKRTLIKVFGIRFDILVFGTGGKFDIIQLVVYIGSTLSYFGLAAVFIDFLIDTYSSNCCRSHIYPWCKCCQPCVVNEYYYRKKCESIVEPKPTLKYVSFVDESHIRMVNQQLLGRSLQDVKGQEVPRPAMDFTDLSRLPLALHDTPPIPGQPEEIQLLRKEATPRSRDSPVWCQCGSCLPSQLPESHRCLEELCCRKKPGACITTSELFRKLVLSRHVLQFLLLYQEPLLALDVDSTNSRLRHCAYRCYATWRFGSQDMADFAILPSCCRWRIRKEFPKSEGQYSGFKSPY
Assay: P2X7 receptor antagonist activity: bbATP-induced ethidium bromide fluorescence in THP-1 cells
Format: cell-based
readout-name: IC50 (nM)
Quick note: give the figure in nM, leave out the unit.

Reported P2X7 receptor (Homo sapiens, UniProt Q99572) IC50 for item CS(=O)(=O)NC(=O)NCCCc1ccc2c(NC(=O)CC3CCCCC3)c(Cl)ccc2n1 was 501

---

Where a name gives a salt, the structure may show the parent alone.
Exercise: state measured melting point for each of the molecules provided.

Measured melting point, O=C(CC1CCCCC1)Nc1c(Cl)ccc2nc(N[C@@H]3CCNC3)ccc12 (as salt: hydrochloride) [Example 14, Dihydrochloride] : 193 to 198 °C

Measured melting point, O=C(CCC1CCCC1)Nc1c(Cl)ccc2nc(N3CC[C@H](NCCO)C3)ccc12 : 186 to 188 °C

Measured melting point, CC1(CC(=O)Nc2cccc3ncccc23)CCCCC1 : 133 to 135 °C

Measured melting point, O=C(CC1CCCCC1)Nc1c(Cl)ccc2nc(N3CCC(n4cn[nH]c4=O)CC3)ccc12 : 310 to 313 °C
